Target: CFTR-mediated chloride transport in human intestinal epithelial enteroid cells (Homo sapiens)
Sequence (P13569 with tags, fused parts or gaps DEL508-508): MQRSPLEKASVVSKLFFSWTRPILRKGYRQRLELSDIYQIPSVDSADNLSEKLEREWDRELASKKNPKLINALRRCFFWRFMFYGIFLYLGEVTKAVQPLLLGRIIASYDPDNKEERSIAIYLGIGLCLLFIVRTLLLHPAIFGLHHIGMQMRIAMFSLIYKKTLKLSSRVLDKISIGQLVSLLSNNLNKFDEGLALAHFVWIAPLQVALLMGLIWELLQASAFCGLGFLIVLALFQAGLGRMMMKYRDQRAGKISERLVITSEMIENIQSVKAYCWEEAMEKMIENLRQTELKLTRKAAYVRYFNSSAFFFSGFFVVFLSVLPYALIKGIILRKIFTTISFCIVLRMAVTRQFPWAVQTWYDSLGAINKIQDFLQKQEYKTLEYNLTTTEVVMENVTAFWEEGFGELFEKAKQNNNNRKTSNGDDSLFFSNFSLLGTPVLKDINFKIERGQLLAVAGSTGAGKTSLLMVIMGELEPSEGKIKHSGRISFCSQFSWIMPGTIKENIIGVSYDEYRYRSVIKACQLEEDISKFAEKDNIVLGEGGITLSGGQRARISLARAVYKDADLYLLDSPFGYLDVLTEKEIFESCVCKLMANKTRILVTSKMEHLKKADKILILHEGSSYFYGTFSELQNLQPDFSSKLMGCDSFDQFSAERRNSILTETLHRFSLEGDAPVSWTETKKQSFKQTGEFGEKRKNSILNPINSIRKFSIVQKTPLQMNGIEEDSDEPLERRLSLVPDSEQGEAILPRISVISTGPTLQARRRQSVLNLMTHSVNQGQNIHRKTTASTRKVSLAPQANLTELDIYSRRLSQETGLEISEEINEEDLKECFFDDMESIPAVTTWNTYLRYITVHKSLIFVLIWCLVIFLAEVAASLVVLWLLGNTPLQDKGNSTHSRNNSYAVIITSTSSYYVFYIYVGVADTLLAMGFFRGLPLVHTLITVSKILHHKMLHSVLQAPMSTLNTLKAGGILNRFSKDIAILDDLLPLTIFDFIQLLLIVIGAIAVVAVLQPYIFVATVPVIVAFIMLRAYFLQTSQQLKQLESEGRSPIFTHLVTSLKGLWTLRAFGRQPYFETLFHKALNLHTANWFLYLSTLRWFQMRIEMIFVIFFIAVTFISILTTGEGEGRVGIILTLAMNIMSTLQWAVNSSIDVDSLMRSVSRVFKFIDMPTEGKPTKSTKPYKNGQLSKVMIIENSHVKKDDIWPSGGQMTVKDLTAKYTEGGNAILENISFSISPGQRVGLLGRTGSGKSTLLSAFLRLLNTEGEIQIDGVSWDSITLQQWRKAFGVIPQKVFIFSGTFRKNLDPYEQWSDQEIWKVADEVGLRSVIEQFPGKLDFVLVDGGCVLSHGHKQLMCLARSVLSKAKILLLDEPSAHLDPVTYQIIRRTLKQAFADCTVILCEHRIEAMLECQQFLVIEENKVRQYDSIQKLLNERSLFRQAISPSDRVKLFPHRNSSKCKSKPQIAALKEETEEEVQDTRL
Experiment: Membrane potential dye, Enteroid Assay A
Assay type: cell-based
Settings: % of chloride transport of triple combination control: 3 μM (S)-N-((6-aminopyridin-2-yl)sulfonyl)-6-(3-fluoro-5-isobutoxyphenyl)-2-(2,2,4-trimethylpyrrolidin-1-yl)nicotinamide, 3 μM tezacaftor, 300 nM acute ivacaftor
Readout: Ent. A Max Activity

> print(dat)
                                   compound              readout    assay.value
1  Cc1cccc(C)c1-c1cc2nc(n1)NS(=O)(=O)c1cccc(c1)C(=O)NC(CC(C)C)CN2 (stereo not drawn) [Compound 37]  Ent. A Max Activity  + (+ is <30%)
2  Cc1cccc(C)c1-c1cc2nc(n1)NS(=O)(=O)c1cccc(c1)C(=O)OCC(CCC1(C(F)(F)F)CC1)N2CCC(C)C (stereo not drawn) [Compound 30]  Ent. A Max Activity  + (+ is <30%)
